target: P2Y purinoceptor 4 (Homo sapiens); test: Antagonist activity at human P2Y purinoceptor 4 expressed in human 1321N1 cells assessed as inhibition of UTP-induced increase in intracellular calcium concentration by spectrofluorimetry; format: functional, cell-based
Sequence (P51582 whole entry): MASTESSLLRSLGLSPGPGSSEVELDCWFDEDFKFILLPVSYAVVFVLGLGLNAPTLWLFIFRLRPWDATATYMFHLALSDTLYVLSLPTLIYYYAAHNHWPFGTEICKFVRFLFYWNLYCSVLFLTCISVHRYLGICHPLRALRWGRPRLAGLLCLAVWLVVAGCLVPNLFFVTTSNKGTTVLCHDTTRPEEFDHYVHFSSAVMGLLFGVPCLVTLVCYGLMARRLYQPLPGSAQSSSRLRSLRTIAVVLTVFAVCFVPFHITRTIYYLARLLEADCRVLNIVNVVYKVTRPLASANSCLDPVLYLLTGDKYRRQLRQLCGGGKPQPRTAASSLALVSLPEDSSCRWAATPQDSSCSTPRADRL
Activity calls are given as the source filed them. The rule behind the calls is not given here.

>  <compound>
BP(=O)(OP(=O)(O)OC[C@H]1O[C@@H](n2ccc(=O)[nH]c2=O)[C@H](O)[C@@H]1O)OP(=O)(O)OP(=O)(O)OC[C@H]1O[C@@H](n2cnc3c(N)ncnc32)[C@H](O)[C@@H]1O.CCCCN(CCCC)CCCC.CCCCN(CCCC)CCCC.CCCCN(CCCC)CCCC.CCCCN(CCCC)CCCC (stereo in doubt; 9A)

>  <Activity>
inactive

$$$$
>  <compound>
BP(=O)(OC[C@H]1O[C@@H](n2cnc3c(N)ncnc32)[C@H](O)[C@@H]1O)OP(=O)(O)OP(=O)(O)OC[C@H]1O[C@@H](n2cnc3c(N)ncnc32)[C@H](O)[C@@H]1O.CCCCN(CCCC)CCCC.CCCCN(CCCC)CCCC.CCCCN(CCCC)CCCC (stereo in doubt; 10A)

>  <Activity>
inactive

$$$$
>  <compound>
BP(=O)(OP(=O)(O)OC[C@H]1O[C@@H](n2cnc3c(N)ncnc32)[C@H](O)[C@@H]1O)OP(=O)(O)OP(=O)(O)OC[C@H]1O[C@@H](n2cnc3c(N)ncnc32)[C@H](O)[C@@H]1O.CCCCN(CCCC)CCCC.CCCCN(CCCC)CCCC.CCCCN(CCCC)CCCC.CCCCN(CCCC)CCCC (stereo in doubt; 6B)

>  <Activity>
inactive

$$$$
